target entity: Hck (UniProt P08631)
Sequence (P08631 whole entry, looked up): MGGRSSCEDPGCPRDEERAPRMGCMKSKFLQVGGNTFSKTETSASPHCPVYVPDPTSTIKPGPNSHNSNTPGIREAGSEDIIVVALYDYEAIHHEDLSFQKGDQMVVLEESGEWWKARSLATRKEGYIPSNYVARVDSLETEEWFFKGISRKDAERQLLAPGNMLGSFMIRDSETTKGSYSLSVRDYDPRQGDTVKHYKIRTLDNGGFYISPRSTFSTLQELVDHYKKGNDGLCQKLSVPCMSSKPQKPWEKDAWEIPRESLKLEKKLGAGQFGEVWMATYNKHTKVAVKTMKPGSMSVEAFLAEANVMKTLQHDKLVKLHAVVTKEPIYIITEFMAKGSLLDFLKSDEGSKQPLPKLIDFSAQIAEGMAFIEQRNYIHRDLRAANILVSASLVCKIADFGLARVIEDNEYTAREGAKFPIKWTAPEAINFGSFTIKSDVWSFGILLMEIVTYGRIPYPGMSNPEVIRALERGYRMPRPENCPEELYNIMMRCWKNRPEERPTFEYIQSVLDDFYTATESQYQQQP
test name: phosphorylation enrichment, bacterial display (enrichment ratio); higher = better substrate or ligand; peptides without Tyr show the background;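 also: 11-residue human phosphosite peptides and single-mutation variants displayed on the E. coli surface, counted by deep sequencing, each peptide's frequency after selection divided by its frequency in the unselected input library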;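 also: frequency after pTyr selection over input frequency; kinase dosed for 20-30% of maximal phosphorylation in three min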
experimental readout: phosphorylation enrichment
# print the numeric value only

Some sequences with recorded phosphorylation enrichment:
{"residue sequence": "QNTVDYFDLFG [PTPN11_Y62_G60V_YF]", "experimental readout": "phosphorylation enrichment", "observed result": 0.595}
{"residue sequence": "LTSKPYAFTAQ [NDUFS1_Y236_R241Q]", "experimental readout": "phosphorylation enrichment", "observed result": 0.363}
{"residue sequence": "ISIFHCAKGQP [MPZ_Y82_Y82C]", "experimental readout": "phosphorylation enrichment", "observed result": 0.608}

Look up phosphorylation enrichment for this sequence: KWTVDYLGQVG [TYW5_Y48_S50G]
0.487

And the next one, VTHKEYFIFLE [CAMKV_Y95_R92H] ?
0.54

And the next one, GDYLSYREFHL [ERBIN_Y1107_S1112L] ?
2.45

And the next one, HTEGEYSSLEH [IDH3B_Y171_Q166H] ?
1.24

And the next one, IRKVLYANNVM [ACTA1_Y296_D294V] ?
0.297

And the next one, PRPACYPSTVS [CACNA1C_Y1832_G1831C] ?
0.49

And the next one, YQGGTYSKAST [FGG_Y380] ?
0.424

And the next one, ALLTKYSHSSM [DSCC1_Y374] ?
0.485

And the next one, FRRITYHNWRH [PDE6B_Y556_YF] ?
0.527

And the next one, DNEAIYDICRC [TUBA4A_Y210_R215C] ?
7.18

And the next one, TAALWYIFSHT [ENG_Y612_YF] ?
0.536
